- Assayed Target: human TAS2R1 (Homo sapiens)
- Construct: expressed in transfected cells; host or cells: HEK293T-Gα16gust44
- Run Description: Calcium imaging assay (FLIPR), HEK293T-Gα16gust44 cells transfected with human TAS2R1
- Type: cell-based
- Measurement Setup: Time 179.547 s
Each entry below carries its recorded RLU.
The reply should contain only the number, in RLU.

Query: Data request, read-out RLU, for C[C@H](CCC(=O)O)[C@H]1CC[C@H]2[C@@H]3CC[C@@H]4C[C@H](O)CC[C@]4(C)[C@H]3C[C@H](O)[C@]12C [Deoxycholic Acid, deoxycholic acid]
Reply: 266.358

Query: RLU; subject: C[C@H](CCC(=O)NCC(=O)O)[C@H]1CC[C@H]2[C@@H]3[C@H](O)C[C@@H]4C[C@H](O)CC[C@]4(C)[C@H]3C[C@H](O)[C@]12C [Glycocholic Acid, glycocholic acid]
Reply: 213.168

Query: Any idea what its RLU is? The molecule is C[C@H](CCC(=O)NCCS(=O)(=O)O)[C@H]1CC[C@H]2[C@@H]3[C@H](O)C[C@@H]4C[C@H](O)CC[C@]4(C)[C@H]3C[C@H](O)[C@]12C [Taurocholic Acid, taurocholic acid]
Reply: 150.852

Query: Fill in the blank: the reported RLU of C[C@H](CCC(=O)NCCS(=O)(=O)O)[C@H]1CC[C@H]2[C@@H]3CC[C@@H]4C[C@H](O)CC[C@]4(C)[C@H]3CC[C@]12C [Taurolithocholic Acid, taurolithocholic acid] is ____.
Reply: 137.711

* * *

- Assayed Target: mouse Tas2r144 (Mus musculus, UniProt Q7TQB8)
- Construct: expressed in transfected cells; host or cells: HEK293T-Gα16gust44
- Sequence (Q7TQB8 whole entry): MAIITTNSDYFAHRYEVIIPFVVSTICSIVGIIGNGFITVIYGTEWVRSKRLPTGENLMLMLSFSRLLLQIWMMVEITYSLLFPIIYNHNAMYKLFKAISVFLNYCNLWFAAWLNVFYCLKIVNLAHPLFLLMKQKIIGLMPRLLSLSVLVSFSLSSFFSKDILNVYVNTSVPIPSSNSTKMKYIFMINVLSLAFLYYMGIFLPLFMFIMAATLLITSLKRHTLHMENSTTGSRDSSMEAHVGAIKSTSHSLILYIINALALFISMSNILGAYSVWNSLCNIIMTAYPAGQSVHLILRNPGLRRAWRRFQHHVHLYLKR
- Run Description: Calcium imaging assay (FLIPR), HEK293T-Gα16gust44 cells transfected with mouse Tas2r144
- Type: cell-based
- Measurement Setup: Time 106.781 s
Let's look at some molecules and their measured RLU.
A bare number is not enough; add the unit after it.

Record excerpt, results attached:
| Query Smiles | RLU |
| --- | --- |
| C[C@H](CCC(=O)NCCS(=O)(=O)O)[C@H]1CC[C@H]2[C@@H]3[C@H](O)C[C@@H]4C[C@H](O)CC[C@]4(C)[C@H]3C[C@H](O)[C@]12C | 501.886 RLU |
| C[C@H](CCC(=O)NCCS(=O)(=O)O)[C@H]1CC[C@H]2[C@@H]3CC[C@@H]4C[C@H](O)CC[C@]4(C)[C@H]3CC[C@]12C | 394.729 RLU |
| C[C@H](CCC(=O)O)[C@H]1CC[C@H]2[C@@H]3[C@H](O)C[C@@H]4C[C@H](O)CC[C@]4(C)[C@H]3C[C@H](O)[C@]12C | 485.694 RLU |

Query: Please look up its RLU: C[C@H](CCC(=O)NCC(=O)O)[C@H]1CC[C@H]2[C@@H]3[C@H](O)C[C@@H]4C[C@H](O)CC[C@]4(C)[C@H]3C[C@H](O)[C@]12C
Reply: 355.75 RLU

* * *

- Assayed Target: human TAS2R1 (Homo sapiens, UniProt Q9NYW7)
- Construct: expressed in transfected cells; host or cells: HEK293T-Gα16gust44
- Sequence (Q9NYW7 whole entry): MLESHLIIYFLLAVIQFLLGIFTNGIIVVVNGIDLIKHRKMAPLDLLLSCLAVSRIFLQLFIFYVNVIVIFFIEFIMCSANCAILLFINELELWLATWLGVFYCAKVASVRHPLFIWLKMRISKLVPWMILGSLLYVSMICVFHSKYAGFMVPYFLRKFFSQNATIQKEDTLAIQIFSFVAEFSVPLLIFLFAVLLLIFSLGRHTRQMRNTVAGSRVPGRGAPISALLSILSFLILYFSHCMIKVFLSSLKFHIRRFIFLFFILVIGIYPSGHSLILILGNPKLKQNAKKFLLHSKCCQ
- Run Description: Calcium imaging assay (FLIPR), HEK293T-Gα16gust44 cells transfected with human TAS2R1
- Type: cell-based
- Measurement Setup: Time 116.781 s
Measured Quantity: RLU (RLU)
A number alone suffices; assume RLU.

Example cases with answers are listed next.
| Query Smiles | Assayed Target | Display Unit | RLU |
| --- | --- | --- | --- |
| C[C@H](CCC(=O)NCCS(=O)(=O)O)[C@H]1CC[C@H]2[C@@H]3[C@H](O)C[C@@H]4C[C@H](O)CC[C@]4(C)[C@H]3C[C@H](O)[C@]12C | human TAS2R1 (Homo sapiens, UniProt Q9NYW7) | RLU | 308.179 |
| C[C@H](CCC(=O)NCCS(=O)(=O)O)[C@H]1CC[C@H]2[C@@H]3CC[C@@H]4C[C@H](O)CC[C@]4(C)[C@H]3CC[C@]12C | human TAS2R1 (Homo sapiens, UniProt Q9NYW7) | RLU | 583.964 |
| C[C@H](CCC(=O)NCC(=O)O)[C@H]1CC[C@H]2[C@@H]3[C@H](O)C[C@@H]4C[C@H](O)CC[C@]4(C)[C@H]3C[C@H](O)[C@]12C | human TAS2R1 (Homo sapiens, UniProt Q9NYW7) | RLU | 450.802 |

Query: Would you mind telling me what RLU value was observed for C[C@H](CCC(=O)O)[C@H]1CC[C@H]2[C@@H]3CC[C@@H]4C[C@H](O)CC[C@]4(C)[C@H]3C[C@H](O)[C@]12C ?
Reply: 389.914

* * *

- Assayed Target: human TAS2R1 (Homo sapiens)
- Construct: expressed in transfected cells; host or cells: HEK293T-Gα16gust44
- Run Description: Calcium imaging assay (FLIPR), HEK293T-Gα16gust44 cells transfected with human TAS2R1
- Type: cell-based
- Measurement Setup: Time 70.796 s
Measured Quantity: RLU (RLU)
Numeric answer only, unit RLU assumed.

Previously resolved entries follow.
| Compound | Measured Quantity | Recorded Number |
| --- | --- | --- |
| C[C@H](CCC(=O)O)[C@H]1CC[C@H]2[C@@H]3[C@@H](O)C[C@@H]4C[C@H](O)CC[C@]4(C)[C@H]3CC[C@]12C [Ursodeoxycholic Acid, ursodeoxycholic acid] | RLU | 644.562 |
| C[C@H](CCC(=O)O)[C@H]1CC[C@H]2[C@@H]3CC[C@@H]4C[C@H](O)CC[C@]4(C)[C@H]3CC[C@]12C [Lithocholic Acid, lithocholic acid] | RLU | 857.451 |
| C[C@H](CCC(=O)O)[C@H]1CC[C@H]2[C@@H]3[C@H](O)C[C@@H]4C[C@H](O)CC[C@]4(C)[C@H]3C[C@H](O)[C@]12C [Cholic Acid, cholic acid] | RLU | 729.014 |

Proceed to the following item.
Query: RLU; subject: C[C@H](CCC(=O)O)[C@H]1CC[C@H]2[C@@H]3[C@H](O)C[C@@H]4C[C@H](O)CC[C@]4(C)[C@H]3CC[C@]12C [Chenodeoxycholic Acid, chenodeoxycholic acid]
Reply: 871.317

* * *

- Assayed Target: human TAS2R1 (Homo sapiens)
- Construct: expressed in transfected cells; host or cells: HEK293T-Gα16gust44
- Run Description: Calcium imaging assay (FLIPR), HEK293T-Gα16gust44 cells transfected with human TAS2R1
- Assay type: cell-based
- Measurement Setup: Time 108.796 s
Measured Quantity: RLU (RLU)
All answers are understood in RLU, so give the number only.

Example cases with answers are listed next.
| Compound | Measured Quantity | Recorded Number |
| --- | --- | --- |
| C[C@H](CCC(=O)O)[C@H]1CC[C@H]2[C@@H]3[C@H](O)C[C@@H]4C[C@H](O)CC[C@]4(C)[C@H]3CC[C@]12C [Chenodeoxycholic Acid, chenodeoxycholic acid] | RLU | 681.535 |
| C[C@H](CCC(=O)O)[C@H]1CC[C@H]2[C@@H]3[C@H](O)C[C@@H]4C[C@H](O)CC[C@]4(C)[C@H]3C[C@H](O)[C@]12C [Cholic Acid, cholic acid] | RLU | 536.028 |

Query: Can you share its RLU? I mean this compound: C[C@H](CCC(=O)O)[C@H]1CC[C@H]2[C@@H]3[C@@H](O)C[C@@H]4C[C@H](O)CC[C@]4(C)[C@H]3CC[C@]12C [Ursodeoxycholic Acid, ursodeoxycholic acid]
Reply: 406.747

Query: Quick one: RLU of C[C@H](CCC(=O)O)[C@H]1CC[C@H]2[C@@H]3CC[C@@H]4C[C@H](O)CC[C@]4(C)[C@H]3CC[C@]12C [Lithocholic Acid, lithocholic acid] ?
Reply: 872.524

* * *

This listing pairs compounds with measured RLU.
- Assayed Target: mouse Tas2r108 (Mus musculus, UniProt Q9JKT3)
- Construct: expressed in transfected cells; host or cells: HEK293T-Gα16gust44
- Sequence (Q9JKT3 1-297): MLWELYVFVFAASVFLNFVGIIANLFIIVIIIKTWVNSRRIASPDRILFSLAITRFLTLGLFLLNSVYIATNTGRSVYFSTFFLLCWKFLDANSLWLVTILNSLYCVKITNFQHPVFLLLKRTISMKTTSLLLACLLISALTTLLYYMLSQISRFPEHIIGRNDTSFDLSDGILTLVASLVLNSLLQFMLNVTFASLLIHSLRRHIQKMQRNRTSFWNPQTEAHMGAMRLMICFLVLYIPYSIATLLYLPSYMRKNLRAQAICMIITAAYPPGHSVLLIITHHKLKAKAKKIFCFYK
- Run Description: Calcium imaging assay (FLIPR), HEK293T-Gα16gust44 cells transfected with mouse Tas2r108
- Format: cell-based
- Measurement Setup: Time 329.562 s
I only need the number, in RLU, no unit after it.

A selection of reference data follows.
| Query Smiles | RLU [RLU] |
| --- | --- |
| C[C@H](CCC(=O)NCCS(=O)(=O)O)[C@H]1CC[C@H]2[C@@H]3[C@H](O)C[C@@H]4C[C@H](O)CC[C@]4(C)[C@H]3C[C@H](O)[C@]12C | 233.221 |
| C[C@H](CCC(=O)O)[C@H]1CC[C@H]2[C@@H]3[C@H](O)C[C@@H]4C[C@H](O)CC[C@]4(C)[C@H]3C[C@H](O)[C@]12C | 162.985 |
| C[C@H](CCC(=O)O)[C@H]1CC[C@H]2[C@@H]3CC[C@@H]4C[C@H](O)CC[C@]4(C)[C@H]3C[C@H](O)[C@]12C | 431.797 |

Query: What RLU value was documented for this compound, C[C@H](CCC(=O)NCC(=O)O)[C@H]1CC[C@H]2[C@@H]3[C@H](O)C[C@@H]4C[C@H](O)CC[C@]4(C)[C@H]3C[C@H](O)[C@]12C ?
Reply: 175.087
